Can you tell me polymerase ribozyme fitness (log ratio) for the items I'm about to list?
B1: TPR 5TU (parent)
chain: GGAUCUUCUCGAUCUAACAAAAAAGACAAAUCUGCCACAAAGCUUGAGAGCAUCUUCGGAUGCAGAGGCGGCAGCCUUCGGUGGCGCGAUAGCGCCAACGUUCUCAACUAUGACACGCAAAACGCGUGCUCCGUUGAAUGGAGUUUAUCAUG

Variants of: B1
ASSAY: polymerase ribozyme fitness, log enrichment relative to wild type (log ratio); higher = more active; in vitro selection for triplet polymerase activity
Fewer inactive variants are shown than the library holds.

Query block: Read the entry G80A C93U and write its reported polymerase ribozyme fitness (log ratio).
Result block: -1.6

Query block: Read the entry A39C G62U G70A A115G and write its reported polymerase ribozyme fitness (log ratio).
Result block: ≤ -4.2

Query block: Read the entry U6G A22U C85A and write its reported polymerase ribozyme fitness (log ratio).
Result block: -0.601

Query block: Read the entry A52U G83A C95U and write its reported polymerase ribozyme fitness (log ratio).
Result block: -3.78

Query block: Read the entry A24U G34U A47C C95G C108A A110G A138C A147C G152A and write its reported polymerase ribozyme fitness (log ratio).
Result block: ≤ -4.2

Query block: Read the entry U55A A147C and write its reported polymerase ribozyme fitness (log ratio).
Result block: -1.3

Query block: Read the entry C87A G88A G117A A119G and write its reported polymerase ribozyme fitness (log ratio).
Result block: ≤ -4.2

Query block: Read the entry A12G U53A G68A A107U and write its reported polymerase ribozyme fitness (log ratio).
Result block: ≤ -4.2

Query block: Read the entry A16G C43G C57U G84A C85A A91C U127C and write its reported polymerase ribozyme fitness (log ratio).
Result block: ≤ -4.2

Query block: Read the entry A39U A107G G140C and write its reported polymerase ribozyme fitness (log ratio).
Result block: ≤ -4.2

Query block: Read the entry U44A U53A C79G C85G A119G U135G and write its reported polymerase ribozyme fitness (log ratio).
Result block: ≤ -4.2

Query block: Read the entry C85G A97G A150U and write its reported polymerase ribozyme fitness (log ratio).
Result block: -2.03

Query block: Read the entry C5G U7C A16C C27U C32G A49C U53G C125A A137U G143C and write its reported polymerase ribozyme fitness (log ratio).
Result block: ≤ -4.2

Query block: Read the entry A12C A19C U45G G84U A142C and write its reported polymerase ribozyme fitness (log ratio).
Result block: ≤ -4.2

Query block: Read the entry C51U U55A C76A U90C C96G G100A U101G and write its reported polymerase ribozyme fitness (log ratio).
Result block: ≤ -4.2

Query block: Read the entry G50U C99A and write its reported polymerase ribozyme fitness (log ratio).
Result block: -1.59

Query block: Read the entry U15G G84A C96A A119U and write its reported polymerase ribozyme fitness (log ratio).
Result block: -2.08

Query block: Read the entry U53G C96U C114U A120C A147U and write its reported polymerase ribozyme fitness (log ratio).
Result block: -3.11

Query block: Read the entry G58C A66C C87G U139A and write its reported polymerase ribozyme fitness (log ratio).
Result block: ≤ -4.2

Query block: Read the entry A26U A98G U127G and write its reported polymerase ribozyme fitness (log ratio).
Result block: ≤ -4.2

Query block: Read the entry C8U A52C G68C and write its reported polymerase ribozyme fitness (log ratio).
Result block: ≤ -4.2

Query block: Read the entry U61C A64G and write its reported polymerase ribozyme fitness (log ratio).
Result block: ≤ -4.2
